Assay: Quantitative high throughput screen for delayed death inhibitors of the malarial parasite plastid, 48 hour incubation.
Conditions: P. falciparum in erythrocytes, luciferase growth
The source made the active and inactive calls. The call rests on the fitted dose curve; in most records, active means well fitted inhibition curve with a large enough effect; inconclusive means small, poorly fitted or top-dose-only effect; inactive means flat fitted curve, though single readings scatter.

ENTRY SMILES: COCCOCOC[C@H](C)N1C[C@@H](C)[C@H](CN(C)S(=O)(=O)c2ccc(F)cc2)OCCCC[C@H](C)Oc2ccc(NC(=O)Nc3ccccc3)cc2C1=O
Potency: 0.0113 µM (active)

ENTRY SMILES: C[C@@H]1CN([C@H](C)CO[Si](C)(C)C(C)(C)C)C(=O)c2cc(NC(=O)Nc3ccccc3)ccc2O[C@@H](C)CCCCO[C@H]1CN(C)S(=O)(=O)c1ccc(F)cc1
Potency: 0.225 µM (active)

ENTRY SMILES: COc1ccc(COC[C@H](C)N2C[C@@H](C)[C@H](CN(C)Cc3ccc(OC)cc3)OCCCC[C@H](C)Oc3ccc(NC(=O)Nc4ccccc4)cc3C2=O)cc1
Potency: 0.565 µM (active)
